Attribution: patent US20230235090A1

- Study Target: T1, cynomolgus monkey 4-1BB (cynomolgus monkey)
- T1 construct: whole, on cells; also called CHO-K1-cyno 4-1BB; CHO-K1/cyno4-1BB
- Assay Name: FACS, CHO-K1/cyno 4-1BB cells [F]
Reported Maximum MFI values follow for various binders
Expressed in MFI, but write only the number.

Answered cases to consult:
{"Binder": "Utomilumab analog (PR000483) (antibody, human IgG2, lambda, V domains shown, anti-4-1BB control antibody; also called Tab) VH: EVQLVQSGAEVKKPGESLRISCKGSGYSFSTYWISWVRQMPGKGLEWMGKIYPGDSYTNYSPSFQGQVTISADKSISTAYLQWSSLKASDTAMYYCARGYGIFDYWGQGTLVTVSS VL: SYELTQPPSVSVSPGQTASITCSGDNIGDQYAHWYQQKPGQSPVLVIYQDKNRPSGIPERFSGSNSGNTATLTISGTQAMDEADYYCATYTGFGSLAVFGGGTKLTVLG", "Reading": 11000}
{"Binder": "PR001838 (antibody, human IgG1, V domains shown, anti-4-1BB HCAb, human IgG1 Fc) VH: EVQLLESGGGLVQPGGSLRLSCAASGFTFSNYAMSWFRQPPETGLKWVSSIDGSGGDTYYADSVKGRFTISRDNSKNTLYLQMNSLRAEDTAVYYCAKEGSHGTDDSHYDVDVWGQGTTVTVSS", "Reading": 13400}
{"Binder": "PR001840 (antibody, human IgG1, V domains shown, anti-4-1BB HCAb, human IgG1 Fc) VH: EVQLVESGGGLVQPGGSLRLSCAASGFTFSSYWMHWVRQAPGKGLVWVSRINSDGSSTSYADSVQGRFTISRDNAKNTLYLQMNSLRAEDTAVYYCVRKGSSSYYHYSIEDDWGQGTLVTVSS", "Reading": 7300}

Please examine the following record next.
*Q* For the binder PR001842 (antibody, human IgG1, V domains shown, anti-4-1BB HCAb, human IgG1 Fc) VH: EVQLLESGGGLVQPGGSLRLSCAASGFTFSSYAMSWGRQAPGKGLEWVSAISGSGGSTYYADSVKGRFTISRDNSKNTLYLHMNSLRAEDTAVYYCAKEKVATTGDYYYDMDVWGQGTTVTVSS , give its measured Maximum MFI value.
*A* 9660
